biological target: HLA-B*44:02; assay: IEDB peptide-MHC binding, purified MHC/competitive/radioactivity; filed as Kd, often an IC50 or EC50 that approximates it; bounds were set here for any values at or beyond the usual limits of such assays; details: source organism: Mammarenavirus whitewaterense

sequence-text	target	Kd
LDIQKCGEL	HLA-B*44:02	≥ 77.9 µM

====

target: HLA-A*02:12; assay: IEDB peptide-MHC binding, purified MHC/competitive/fluorescence; filed as Kd, often an IC50 or EC50 that approximates it; bounds were set here for any values at or beyond the usual limits of such assays; details: source organism: Vibrio cholerae O395
pKd: −log10 of the molar value.
quantity-name: pKd

sequence-text	target	measurement
RVHFHRFMY	HLA-A*02:12	≤ 4.70

====

target: HLA-A*31:01; test: IEDB peptide-MHC binding, purified MHC/competitive/fluorescence; filed as Kd, often an IC50 or EC50 that approximates it; bounds were set here for any values at or beyond the usual limits of such assays; conditions: source organism: Eastern equine encephalitis virus
quantity-name: Kd (nM)

sequence-text	quantity-name	quantity-unit	measurement
ITYGSVSWR	Kd	nM	1.5

====

biological target: HLA-B*15:01; assay: IEDB peptide-MHC binding, purified MHC/competitive/radioactivity; filed as Kd, often an IC50 or EC50 that approximates it; bounds were set here for any values at or beyond the usual limits of such assays; conditions: source organism: Dengue virus 3 Martinique/1243/1999
quantity-name: Kd (nM)

sequence-text	quantity-unit	measurement
HVTRGAVLTY	nM	94

====

target: HLA-A*01:01; assay: IEDB peptide-MHC binding, purified MHC/direct/fluorescence; filed as Kd, often an IC50 or EC50 that approximates it; bounds were set here for any values at or beyond the usual limits of such assays; settings: source organism: Yersinia enterocolitica
pKd: −log10 of the molar value.

sequence-text	pKd
RIYSHIAPY	≤ 4.70

====

target: HLA-A*31:01; experiment: IEDB peptide-MHC binding, purified MHC/direct/fluorescence; filed as Kd, often an IC50 or EC50 that approximates it; bounds were set here for any values at or beyond the usual limits of such assays; settings: source organism: Francisella tularensis subsp. holarctica LVS
pKd: −log10 of the molar value.
quantity-name: pKd

sequence-text	quantity-name	measurement
MFMMIFHFV	pKd	4.92

====

molecular target: HLA-B*08:01; assay: IEDB peptide-MHC binding, purified MHC/direct/fluorescence; filed as Kd, often an IC50 or EC50 that approximates it; bounds were set here for any values at or beyond the usual limits of such assays; settings: source organism: Influenza A virus (A/duck/Mongolia/47/2001(H7N1))

sequence-text	target	Kd
THFQRKRRV	HLA-B*08:01	≥ 20 µM

====

molecular target: HLA-A*30:01; assay: IEDB peptide-MHC binding, purified MHC/direct/fluorescence; filed as Kd, often an IC50 or EC50 that approximates it; bounds were set here for any values at or beyond the usual limits of such assays; conditions: source organism: Rickettsia prowazekii

sequence-text	quantity-unit	Kd
VVNYDNSTK	nM	1740

====

target: HLA-B*15:17; experiment: IEDB peptide-MHC binding, purified MHC/direct/fluorescence; filed as Kd, often an IC50 or EC50 that approximates it; bounds were set here for any values at or beyond the usual limits of such assays; conditions: source organism: Giardia lamblia ATCC 50803
quantity-name: Kd

sequence-text	measurement
NTWNQITKF	76.4 nM
